system: NCI/ADR-RES ovarian; assay: NCI tumour cell line growth inhibition, 48 h
Each entry below carries its reported TGI.
observable: TGI

| querySmiles | observable | result |
| --- | --- | --- |
| COC1=CC(=O)c2nc3ccccc3c3ccnc1c23 | TGI | 51.3 µM |
| CC(=O)c1ccc2c3c1O[C@H]1c4[nH]c5ccccc5c4C[C@@]4(O)[C@@H](C2)N(CC2CC2)CC[C@]314 | TGI | 26.6 µM |
| CC(=O)Nc1ccc(-c2csc(Nc3cccc(-c4csc(-c5ccccc5)n4)c3)n2)cc1 | TGI | > 50 µM |
| O=c1c2cc(I)ccc2nc(SCc2nnco2)n1Cc1ccccc1 | TGI | > 100 µM |
| O=C(Cn1c(C(=O)c2ccc(Cl)cc2)nc(-c2ccccc2)c1-c1ccccc1)c1ccc(Cl)cc1 | TGI | > 100 µM |
| CCC(=O)N1C(=O)C(CC)(CC)C(=O)N1C(=O)CC | TGI | > 100 µM |
